Values compiled from ChEMBL document CHEMBL3588789.

# System: Caco-2
# testMethodNotes: Apparent permeability from basolateral to apical side in human Caco2 cells after 30 to 120 mins by HPLC method
# Assay type: ADME, cell-based
assayReadout: Papp (×10⁻⁶ cm/s)

1. CCN(CC)CC.Nc1ncnc2c1ncn2[C@@H]1O[C@H](CNS(=O)(=O)NC(=O)c2ccccc2O)[C@@H](O)[C@H]1O: 0.86
2. CCN(CC)CC.O=C(NS(=O)(=O)NC[C@H]1O[C@@H](n2cnc3c(NC4CC4)nc(-c4ccccc4)nc32)[C@H](O)[C@@H]1O)c1ccccc1O: 1.8
3. CCN(CC)CC.Nc1ncnc2c1ncn2[C@@H]1O[C@H](COS(=O)(=O)NC(=O)c2ccccc2O)[C@@H](O)[C@H]1O: 0.96
4. CCN(CC)CC.Nc1ncnc2c1ncn2[C@@H]1O[C@H](CNS(=O)(=O)NC(=O)c2ccccc2O)[C@@H](O)[C@H]1F: 1.34

* * *

Listed below: log10(AUC(0-inf)) values for each entry.
# testMethodNotes: AUC (0 to infinity) in Sprague-Dawley rat at 2.5 mg/kg, iv by LC-MS/MS method
# Format: ADME, organism-based
# Design: dose 2.5 mg/kg, route intravenous, time infinity
# studyConditions: in vivo
assayReadout: log10(AUC(0-inf)) (log10 of the value in ng·h/mL)

1. CCN(CC)CC.Nc1nc(-c2ccccc2)nc2c1ncn2[C@@H]1O[C@H](CNS(=O)(=O)NC(=O)c2ccccc2O)[C@@H](O)[C@H]1F: 4.52
2. CCN(CC)CC.Nc1ncnc2c1ncn2[C@@H]1O[C@H](CNS(=O)(=O)NC(=O)c2ccccc2O)[C@@H](O)[C@H]1F: 4.24
3. CCN(CC)CC.O=C(NS(=O)(=O)NC[C@H]1O[C@@H](n2cnc3c(NC4CC4)nc(-c4ccccc4)nc32)[C@H](O)[C@@H]1O)c1ccccc1O: 3.49
4. CCN(CC)CC.Nc1ccc(C(=O)NS(=O)(=O)NC[C@H]2O[C@@H](n3cnc4c(N)ncnc43)[C@H](O)[C@@H]2O)c(O)c1: 3.02
5. CCN(CC)CC.Nc1ncnc2c1ncn2[C@@H]1O[C@H](CNS(=O)(=O)NC(=O)c2ccccc2O)C[C@H]1F: 4.20
6. CCN(CC)CC.Nc1ncnc2c1ncn2[C@@H]1O[C@H](COS(=O)(=O)NC(=O)c2ccccc2O)[C@@H](O)[C@H]1O: 3.94
7. CCN(CC)CC.Nc1ncnc2c1ncn2[C@@H]1O[C@H](CNS(=O)(=O)NC(=O)c2ccccc2O)[C@@H](O)[C@H]1O: 3.71
8. CCN(CC)CC.O=C(NS(=O)(=O)NC[C@H]1O[C@@H](n2cnc3c(NC4CC4)ncnc32)[C@H](O)[C@@H]1O)c1ccccc1O: 3.54

* * *

# Test system: Mycobacterium tuberculosis
# testMethodNotes: Antimicrobial activity against Mycobacterium tuberculosis H37Rv grown in GAS medium without ferric ammonium citrate at pH 6.6 incubated for 10 to 14 days by broth microdilution method
# Format: functional
Entries annotated with measured log10(MIC)
assayReadout: log10(MIC) (log10 of the value in µM)

1) CCN(CC)CC.Nc1ccc(C(=O)NS(=O)(=O)NC[C@H]2O[C@@H](n3cnc4c(N)ncnc43)[C@H](O)[C@@H]2O)c(O)c1: 0.49
2) CCN(CC)CC.O=C(NS(=O)(=O)NC[C@H]1O[C@@H](n2cnc3c(NC4CC4)nc(-c4ccccc4)nc32)[C@H](O)[C@@H]1O)c1ccccc1O: 0.80
3) CCN(CC)CC.Nc1ncnc2c1ncn2[C@@H]1O[C@H](CNS(=O)(=O)NC(=O)c2ccccc2O)C[C@H]1F: -0.11
4) CCN(CC)CC.Nc1ncnc2c1ncn2[C@@H]1O[C@H](COS(=O)(=O)NC(=O)c2ccccc2O)[C@@H](O)[C@H]1O: -0.41
5) CCN(CC)CC.Nc1ncnc2c1ncn2[C@@H]1O[C@H](CNS(=O)(=O)NC(=O)c2ccccc2O)[C@@H](O)[C@H]1F: -0.72
6) CCN(CC)CC.Nc1ncnc2c1ncn2[C@@H]1O[C@H](CNS(=O)(=O)NC(=O)c2ccccc2O)[C@@H](O)[C@H]1O: -0.72
7) CCN(CC)CC.Nc1nc(-c2ccccc2)nc2c1ncn2[C@@H]1O[C@H](CNS(=O)(=O)NC(=O)c2ccccc2O)[C@@H](O)[C@H]1F: 0.19
8) CCN(CC)CC.O=C(NS(=O)(=O)NC[C@H]1O[C@@H](n2cnc3c(NC4CC4)ncnc32)[C@H](O)[C@@H]1O)c1ccccc1O: -1.01
